Measured IC50 accompanies every entry in the list below.
target system: hROMK (hKir1.1) (Homo sapiens, UniProt P48048)
Sequence (P48048 whole entry): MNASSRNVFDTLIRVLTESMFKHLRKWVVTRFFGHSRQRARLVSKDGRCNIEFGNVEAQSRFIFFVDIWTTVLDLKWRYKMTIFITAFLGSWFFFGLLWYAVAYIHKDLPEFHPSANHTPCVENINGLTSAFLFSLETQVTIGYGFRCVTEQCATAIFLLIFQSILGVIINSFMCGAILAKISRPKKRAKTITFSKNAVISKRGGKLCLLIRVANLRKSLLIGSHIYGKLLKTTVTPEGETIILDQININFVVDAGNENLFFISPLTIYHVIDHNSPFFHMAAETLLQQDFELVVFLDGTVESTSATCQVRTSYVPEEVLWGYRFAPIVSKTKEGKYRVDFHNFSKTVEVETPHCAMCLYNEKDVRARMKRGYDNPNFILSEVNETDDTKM
test description: Thallium Flux Assay (ROMK channel functional thallium flux assay, FLIPR-Tetra)
test context: HEK293 cells stably expressing hROMK (hKir1.1); FluxOR thallium flux, 30 min compound incubation; concentration inhibiting 50% of ROMK thallium flux signal
quantity: IC50 (nM)

>>> df
                                   compound  readout_units   val
0  Cc1c([C@@H](O)CN2CCC3(CCN(c4ccc5nncn5n4)CC3)C2)ccc2c1COC2=O             nM    31
1  Cc1c([C@@H](O)CN2CCC3(CC2)CCN(C2=Nc4ccccc4C4=NCCN42)C3)ccc2c1COC2=O             nM   620
2  COc1cc([C@@H](O)CN2CCC3(CC2)CCN(c2ccc4nncn4c2)C3)ncc1C#N             nM   221
3  Cc1nc(C(O)CN2CCC3(CCN(c4ccc5nncn5n4)CC3)C2)ccc1C#N (centres unmarked) [Example 67]             nM  64.2
4  Cc1c([C@@H](O)CN2CCC3(CC2)CC(=O)N(c2ccc4nonc4n2)C3)ccc2c1COC2=O             nM   274
5  Cc1c([C@@H](O)CN2CCC3(CC2)CCN(c2snc4ncccc24)C3=O)ccc2c1COC2=O             nM  57.1
6  Cc1c([C@@H](O)CN2CCC3(CC2)CCN(c2ccc4cnnn4c2)C3=O)ccc2c1COC2=O             nM   172
7  Cc1c([C@@H](O)CN2CCC3(CC2)CCN(c2cnc4nncn4c2)C3)ccc2c1COC2=O             nM   850
